System: pSARS-CoV-2
Format: cell-based, SARS-CoV-2
readout_name: pEC50
Remember, pEC50 is on a log scale: it is -log10 of the molar concentration.

- molecule: "C=C(C)[C@@H]1CC[C@]2(C(=O)OCCCCC)CC[C@]3(C)[C@H](CC[C@@H]4[C@@]5(C)CC[C@H](O[C@@H]6O[C@H](CO)[C@@H](O[C@@H]7O[C@@H](C)[C@H](O)[C@@H](O)[C@H]7O)[C@H](O)[C@H]6O[C@@H]6O[C@@H](C)[C@H](O)[C@@H](O)[C@H]6O)C(C)(C)[C@@H]5CC[C@]43C)[C@@H]12"
  target: "pSARS-CoV-2"
  pEC50: 5.27

Shifting focus to the compound that follows.
Returns the measured pEC50 for the input compound. Input: `C=C(C)[C@@H]1CC[C@]2(C(=O)OCC)CC[C@]3(C)[C@H](CC[C@@H]4[C@@]5(C)CC[C@H](O[C@@H]6O[C@H](CO)[C@@H](O[C@@H]7O[C@@H](C)[C@H](O)[C@@H](O)[C@H]7O)[C@H](O)[C@H]6O[C@@H]6O[C@@H](C)[C@H](O)[C@@H](O)[C@H]6O)C(C)(C)[C@@H]5CC[C@]43C)[C@@H]12` 5.43

###

Tested on: 293 T-ACE2 cells
Threshold check on CC50: strictly below 50 µM is t; on or above 50 µM is f.

- molecule: "C=C(C)[C@@H]1CC[C@]2(C(=O)OC(C)C)CC[C@]3(C)[C@H](CC[C@@H]4[C@@]5(C)CC[C@H](O[C@@H]6O[C@H](CO)[C@@H](O[C@@H]7O[C@@H](C)[C@H](O)[C@@H](O)[C@H]7O)[C@H](O)[C@H]6O[C@@H]6O[C@@H](C)[C@H](O)[C@@H](O)[C@H]6O)C(C)(C)[C@@H]5CC[C@]43C)[C@@H]12"
  label_class: "t"

Hello, is CC50 of the following compound strictly smaller than 50 µM? `C=C(C)[C@@H]1CC[C@]2(C(=O)OCCCl)CC[C@]3(C)[C@H](CC[C@@H]4[C@@]5(C)CC[C@H](O[C@@H]6O[C@H](CO)[C@@H](O[C@@H]7O[C@@H](C)[C@H](O)[C@@H](O)[C@H]7O)[C@H](O)[C@H]6O[C@@H]6O[C@@H](C)[C@H](O)[C@@H](O)[C@H]6O)C(C)(C)[C@@H]5CC[C@]43C)[C@@H]12` f

###

System: 293 T-ACE2 cells
readout_name: CC50

In the examples that follow, each entry is paired with its recorded CC50.
- molecule: "C=CCOC(=O)[C@]12CC[C@@H](C(=C)C)[C@@H]1[C@H]1CC[C@@H]3[C@@]4(C)CC[C@H](O[C@@H]5O[C@H](CO)[C@@H](O[C@@H]6O[C@@H](C)[C@H](O)[C@@H](O)[C@H]6O)[C@H](O)[C@H]5O[C@@H]5O[C@@H](C)[C@H](O)[C@@H](O)[C@H]5O)C(C)(C)[C@@H]4CC[C@@]3(C)[C@]1(C)CC2"
  target: "293 T-ACE2 cells"
  CC50: "84.6 µM"
- molecule: "C=C(C)[C@@H]1CC[C@]2(C(=O)OCCCCC)CC[C@]3(C)[C@H](CC[C@@H]4[C@@]5(C)CC[C@H](O[C@@H]6O[C@H](CO)[C@@H](O[C@@H]7O[C@@H](C)[C@H](O)[C@@H](O)[C@H]7O)[C@H](O)[C@H]6O[C@@H]6O[C@@H](C)[C@H](O)[C@@H](O)[C@H]6O)C(C)(C)[C@@H]5CC[C@]43C)[C@@H]12"
  target: "293 T-ACE2 cells"
  CC50: "24.4 µM"

Turning now to a further record.
Look at this molecule and give its reported CC50. `C=C(C)[C@@H]1CC[C@]2(C(=O)OCC3CC3)CC[C@]3(C)[C@H](CC[C@@H]4[C@@]5(C)CC[C@H](O[C@@H]6O[C@H](CO)[C@@H](O[C@@H]7O[C@@H](C)[C@H](O)[C@@H](O)[C@H]7O)[C@H](O)[C@H]6O[C@@H]6O[C@@H](C)[C@H](O)[C@@H](O)[C@H]6O)C(C)(C)[C@@H]5CC[C@]43C)[C@@H]12` 75.5 µM
